system: biotinyl-Leu-oxazolone; assay: self-aminoacylation, catalytic enhancement (BLO) (fold over background); higher = more active; k-Seq, kA / k0A0; sequences stand for … in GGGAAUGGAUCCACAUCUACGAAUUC…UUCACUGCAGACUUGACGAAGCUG
Fewer inactive variants are shown than the library holds.
observationType: self-aminoacylation

Challenge: Provide only the value of recorded self-aminoacylation for CAACUUCAAGCAAUCGGUCUG [Fam1A.1 aminoacylation ribozyme variant]
Response given: 2.26

Challenge: Item AAGUUUGCUAAUGGUCCCAAG [Fam3.1 aminoacylation ribozyme variant] : provide self-aminoacylation
Response given: 0.908

Challenge: Return the recorded self-aminoacylation value; entry: AUUACCCUGGUCGUCGAGCGA [Fam2.1 aminoacylation ribozyme variant]
Response given: 2.17

Challenge: Please list self-aminoacylation recorded for the sequence AUUGCCUUGGUCAUCGAGUGA [Fam2.1 aminoacylation ribozyme variant]
Response given: 8.79

Challenge: Recall and state the measured self-aminoacylation for AUUACCCUGUUCAUGGAGUGA [Fam2.1 aminoacylation ribozyme variant] .
Response given: 11.4

Challenge: Please list self-aminoacylation recorded for the sequence AUUCAACUAGGGCAUCGGGUG [Fam2.2 aminoacylation ribozyme variant]
Response given: 4.3

Challenge: Assign self-aminoacylation to the following record: CCACUUCAAACAAUCGGCCUG [Fam1A.1 aminoacylation ribozyme variant]
Response given: 7.46

Challenge: Look up and report measured self-aminoacylation for this entry: CCACACUGGAAGCAAUCGGUC [Fam1B.1 aminoacylation ribozyme variant]
Response given: 0.737

Challenge: Please give the documented self-aminoacylation of AUUACCCUGGUUAUCGAGGGA [Fam2.1 aminoacylation ribozyme variant]
Response given: 0.955

Challenge: Specify self-aminoacylation for AUUAACCUAGGUCAUCGGGUU [Fam2.2 aminoacylation ribozyme variant] and stop.
Response given: 12.7

Challenge: Identify measured self-aminoacylation associated with CCACGCUUCAAGCAAUCGGAC [Fam1B.1 aminoacylation ribozyme variant]
Response given: 0.696

Challenge: Given CCACACUUCAAGCAAUCAUUC [Fam1B.1 aminoacylation ribozyme variant] , respond with its self-aminoacylation.
Response given: 0.56

Challenge: Please look at this sequence and report its self-aminoacylation: AUUACGCUGGUCAGCGAGUGA [Fam2.1 aminoacylation ribozyme variant]
Response given: 4.3

Challenge: Write down self-aminoacylation measured for item AUUACUCUGGUCGUCGAGUGA [Fam2.1 aminoacylation ribozyme variant]
Response given: 1.31

Challenge: Give a short answer stating reported self-aminoacylation for AUUACCCUGCUCAUCGUGUGA [Fam2.1 aminoacylation ribozyme variant] .
Response given: 2.85

Challenge: In one line, give reported self-aminoacylation of the entry CUGCUUCAAACAAUAGGUCUG [Fam1A.1 aminoacylation ribozyme variant] .
Response given: 0.547

Challenge: // fetch self-aminoacylation given entry AUUGCCCUGGUUAUCGAGUGA [Fam2.1 aminoacylation ribozyme variant]
Response given: 9.13

Challenge: // fetch self-aminoacylation given entry AUUACCCUGCUCAUCUAGUGA [Fam2.1 aminoacylation ribozyme variant]
Response given: 6.75
